target: EGFR^WT kinase (Homo sapiens); experiment: EGFR^WT kinase assay (ULight/PT66 TR-FRET); format: biochemical
Sequence (P00533 25-1210): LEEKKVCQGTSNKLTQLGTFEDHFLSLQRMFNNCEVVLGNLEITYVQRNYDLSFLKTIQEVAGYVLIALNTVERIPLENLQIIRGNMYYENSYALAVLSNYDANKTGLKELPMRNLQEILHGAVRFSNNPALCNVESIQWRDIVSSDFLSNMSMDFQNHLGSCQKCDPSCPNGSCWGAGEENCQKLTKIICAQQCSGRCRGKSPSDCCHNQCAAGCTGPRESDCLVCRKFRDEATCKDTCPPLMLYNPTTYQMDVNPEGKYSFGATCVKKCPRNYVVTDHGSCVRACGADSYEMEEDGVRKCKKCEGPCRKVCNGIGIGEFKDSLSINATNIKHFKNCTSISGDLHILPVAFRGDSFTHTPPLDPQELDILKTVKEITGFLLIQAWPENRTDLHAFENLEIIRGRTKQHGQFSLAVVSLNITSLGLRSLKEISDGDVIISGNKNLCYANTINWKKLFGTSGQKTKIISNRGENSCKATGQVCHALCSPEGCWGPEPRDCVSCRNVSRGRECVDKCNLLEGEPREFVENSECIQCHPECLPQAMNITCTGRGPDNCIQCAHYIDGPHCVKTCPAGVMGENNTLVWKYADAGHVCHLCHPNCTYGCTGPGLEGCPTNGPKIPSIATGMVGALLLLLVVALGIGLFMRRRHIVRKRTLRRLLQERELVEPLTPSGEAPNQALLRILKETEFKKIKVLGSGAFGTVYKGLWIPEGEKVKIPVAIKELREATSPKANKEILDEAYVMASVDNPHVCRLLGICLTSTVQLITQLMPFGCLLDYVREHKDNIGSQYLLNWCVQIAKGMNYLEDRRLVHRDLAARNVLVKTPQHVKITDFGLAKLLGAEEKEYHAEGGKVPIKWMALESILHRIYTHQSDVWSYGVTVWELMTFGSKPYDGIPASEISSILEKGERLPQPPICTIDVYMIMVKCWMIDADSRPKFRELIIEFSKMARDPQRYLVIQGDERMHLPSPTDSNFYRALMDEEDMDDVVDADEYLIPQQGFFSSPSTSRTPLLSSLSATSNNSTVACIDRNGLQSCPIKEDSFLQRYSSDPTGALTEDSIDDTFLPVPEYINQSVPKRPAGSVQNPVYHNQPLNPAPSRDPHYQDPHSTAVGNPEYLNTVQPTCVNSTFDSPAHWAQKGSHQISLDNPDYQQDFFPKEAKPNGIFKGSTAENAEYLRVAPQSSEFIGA
Reported endpoint: IC50

Study these solved cases before continuing.
1) COCCOc1c(NC(=O)/C=C/[C@H]2CCCN2C)ccc2ncnc(Nc3ccc(OCc4ccccn4)c(Cl)c3)c12    < 10 nM
2) [2H]C([2H])([2H])Oc1c(NC(=O)/C=C/CN(C)C)ccc2ncnc(Nc3ccc(OCc4ccccn4)c(Cl)c3)c12    < 10 nM
3) CN1CCC[C@@H]1/C=C/C(=O)Nc1ccc2ncnc(Nc3ccc(OCc4ccccn4)c(Cl)c3)c2c1OCC(C)(C)O    < 10 nM
4) [2H]C([2H])([2H])Oc1c(NC(=O)/C=C/[C@H]2CCCN2C(C)C)ccc2ncnc(Nc3ccc(OCc4ccccn4)c(Cl)c3)c12    10 to 100 nM
5) COc1c(NC(=O)/C=C/[C@H]2CCCN2C(C)C)ccc2ncnc(Nc3ccc(OCc4cccc(F)c4)c(Cl)c3)c12    < 10 nM
6) CCOc1c(NC(=O)/C=C/[C@H]2CCCN2C)ccc2ncnc(Nc3ccc(OCc4ccccn4)c(F)c3)c12    < 10 nM

# input for lookup
Please list IC50 recorded for the molecule `CN1CCC[C@@H]1/C=C/C(=O)Nc1ccc2ncnc(Nc3ccc(OCc4ccccn4)c(Cl)c3)c2c1OCCCF`
< 10 nM

----------
Assay: Pharmacokinetics in SD rats, single intravenous injection and oral administration
Type: in vivo, SD rat
Conditions: SD, rat, whole blood, PO 10 mg/kg, NA: Exposure was too low to be counted
Procedure: In this assay, the pharmacokinetic characteristics of the compounds of the present application were assayed after administration of some of the compounds of the present application to SD rats by single oral administration and intravenous injection. 1. […] The mixture was stirred, vortexed and/or sonicated. […] The supernatant was diluted 2-fold with ultra-pure water, and the samples were analyzed by LC/MS. Pharmacokinetic parameters was calculated using WinNonlin software. […]
Reported endpoint: AUC(0-t) (ng·h/mL)

Study these solved cases before continuing.
1. COc1c(NC(=O)/C=C/[C@H]2CCCN2C)ccc2ncnc(Nc3ccc(OCc4ccccn4)c(Cl)c3)c12    888
2. CCN1CCC[C@@H]1/C=C/C(=O)Nc1ccc2ncnc(Nc3ccc(OCc4ccccn4)c(Cl)c3)c2c1OC    1100
3. CCOc1cc2ncc(C#N)c(Nc3ccc(OCc4ccccn4)c(Cl)c3)c2cc1NC(=O)/C=C/[C@H]1CCCN1C [PYROTINIB, pyrotinib, reference compound]    2790
4. CN1CCC[C@H]1/C=C/C(=O)Nc1ccc2ncnc(Nc3ccc(OCc4ccccn4)c(Cl)c3)c2c1 [Control compound 2, reference compound]    18.7
5. COCCCOc1c(NC(=O)/C=C/[C@H]2CCCN2C)ccc2ncnc(Nc3ccc(OCc4ccccn4)c(Cl)c3)c12    1100

[1] COc1c(NC(=O)/C=C/[C@H]2CCCN2C(C)C)ccc2ncnc(Nc3ccc(OCc4ccccn4)c(Cl)c3)c12
[2] CCCOc1c(NC(=O)/C=C/[C@H]2CCCN2C)ccc2ncnc(Nc3ccc(OCc4ccccn4)c(Cl)c3)c12
Identify the entry with the smaller AUC(0-t): 1 or 2 . Indicate your choice by writing its label.
2

----------
Assay: Pharmacokinetics in SD rats, single intravenous injection and oral administration
Format: in vivo, SD rat
Conditions: SD, rat, in vivo, PO 10 mg/kg, NA: Exposure was too low to be counted
Method: In this assay, the pharmacokinetic characteristics of the compounds of the present application were assayed after administration of some of the compounds of the present application to SD rats by single oral administration and intravenous injection. 1. […] The mixture was stirred, vortexed and/or sonicated. […] The supernatant was diluted 2-fold with ultra-pure water, and the samples were analyzed by LC/MS. Pharmacokinetic parameters was calculated using WinNonlin software. […]
Reported endpoint: AUC(0-t) (ng·h/mL)
Expressed in ng·h/mL, but write only the number.

Please list AUC(0-t) recorded for the molecule CCOc1cc2ncc(C#N)c(Nc3ccc(OCc4ccccn4)c(Cl)c3)c2cc1NC(=O)/C=C/CN(C)C [NERATINIB, neratinib, reference compound]
1470

----------
biological target: UniProt:P00533
pIC50: −log10 of the molar value.
Recorded measurements of pIC50, one per entry

Study these solved cases before continuing.
1. COc1c(NC(=O)/C=C/CN(C)C)ccc2ncnc(Nc3ccc(OCc4ccccn4)c(Cl)c3)c12    > 8.00
2. CN1CCC[C@@H]1/C=C/C(=O)Nc1ccc2ncnc(Nc3ccc(OCc4ccccn4)c(Cl)c3)c2c1OCCO    > 8.00
3. CN1CCC[C@@H]1/C=C/C(=O)Nc1ccc2ncnc(Nc3ccc(OCc4ccccn4)c(Cl)c3)c2c1OCC1CC1    > 8.00

# input for lookup
Enter recorded pIC50 with UniProt:P00533 for `CN1CCC[C@@H]1/C=C/C(=O)Nc1ccc2ncnc(Nc3ccc(Oc4ccccc4)cc3)c2c1OCCO` here.
> 8.00

----------
test: Pharmacokinetics in SD rats, single intravenous injection and oral administration; type: in vivo, SD rat; settings: SD, rat, whole blood, PO 10 mg/kg, NA: Exposure was too low to be counted
Reported endpoint: half-life (h)

Study these solved cases before continuing.
1. COc1c(NC(=O)/C=C/[C@H]2CCCN2C)ccc2ncnc(Nc3ccc(OCc4ccccn4)c(Cl)c3)c12    3.69
2. CCN1CCC[C@@H]1/C=C/C(=O)Nc1ccc2ncnc(Nc3ccc(OCc4ccccn4)c(Cl)c3)c2c1OC    4.63
3. COCCCOc1c(NC(=O)/C=C/[C@H]2CCCN2C)ccc2ncnc(Nc3ccc(OCc4ccccn4)c(Cl)c3)c12    4.13

[P] CCOc1cc2ncc(C#N)c(Nc3ccc(OCc4ccccn4)c(Cl)c3)c2cc1NC(=O)/C=C/[C@H]1CCCN1C [PYROTINIB, pyrotinib, reference compound]
[Q] CN1CCC[C@H]1/C=C/C(=O)Nc1ccc2ncnc(Nc3ccc(OCc4ccccn4)c(Cl)c3)c2c1 [Control compound 2, reference compound]
[R] CCCOc1c(NC(=O)/C=C/[C@H]2CCCN2C)ccc2ncnc(Nc3ccc(OCc4ccccn4)c(Cl)c3)c12
[S] COc1c(NC(=O)/C=C/[C@H]2CCCN2C(C)C)ccc2ncnc(Nc3ccc(OCc4ccccn4)c(Cl)c3)c12
Given 4 compounds, produce a descending ranking by half-life. # format: label list in the order the request specifies
S, R, P, Q
(S: 7.81 h, R: 5.42 h, P: 3.6 h, Q: 2.39 h)

----------
Experiment: Brain tissue and whole blood concentration in SD rats after oral administration
Assay type: in vivo
Details: rat, PO 10 mg/kg, whole blood, 2 h after administration, read-out: Blood drug concentration
Method: In this assay, the pharmacokinetic characteristics of the compounds of the present application were assayed after administration of some of the compounds of the present application to SD rats by single oral administration and intravenous injection. 2. […] The mixture was stirred, vortexed and/or sonicated. […] The supernatant was diluted 2-fold with ultra-pure water, and the samples were analyzed by LC/MS. […]
Reported endpoint: concentration at 2 h (ng/mL)

Study these solved cases before continuing.
1) CCN1CCC[C@@H]1/C=C/C(=O)Nc1ccc2ncnc(Nc3ccc(OCc4ccccn4)c(Cl)c3)c2c1OC    121
2) CCOc1cc2ncc(C#N)c(Nc3ccc(OCc4ccccn4)c(Cl)c3)c2cc1NC(=O)/C=C/CN(C)C [NERATINIB, neratinib, reference compound]    440

[I] CCCOc1c(NC(=O)/C=C/[C@H]2CCCN2C)ccc2ncnc(Nc3ccc(OCc4ccccn4)c(Cl)c3)c12
[II] CCOc1cc2ncc(C#N)c(Nc3ccc(OCc4ccccn4)c(Cl)c3)c2cc1NC(=O)/C=C/[C@H]1CCCN1C [PYROTINIB, pyrotinib, reference compound]
Parameter check: reported concentration at 2 h is higher for which label, I or II ? Indicate your choice by writing its label.
II
(II: 884 ng/mL, I: 273 ng/mL)

----------
biological target: Ba/F3 EGFR D770_N771insSVD cells (Homo sapiens, UniProt P00533, DUP768-770, cells depend on it); assay: Inhibition of cell proliferation, CTG method, Ba/F3 EGFR D770_N771insSVD; assay type: cell-based; conditions: 72 hours, read-out: Ba/F3 EGFR D770_N771insSVD IC50
Sequence (P00533 with tags, fused parts or gaps DUP768-770): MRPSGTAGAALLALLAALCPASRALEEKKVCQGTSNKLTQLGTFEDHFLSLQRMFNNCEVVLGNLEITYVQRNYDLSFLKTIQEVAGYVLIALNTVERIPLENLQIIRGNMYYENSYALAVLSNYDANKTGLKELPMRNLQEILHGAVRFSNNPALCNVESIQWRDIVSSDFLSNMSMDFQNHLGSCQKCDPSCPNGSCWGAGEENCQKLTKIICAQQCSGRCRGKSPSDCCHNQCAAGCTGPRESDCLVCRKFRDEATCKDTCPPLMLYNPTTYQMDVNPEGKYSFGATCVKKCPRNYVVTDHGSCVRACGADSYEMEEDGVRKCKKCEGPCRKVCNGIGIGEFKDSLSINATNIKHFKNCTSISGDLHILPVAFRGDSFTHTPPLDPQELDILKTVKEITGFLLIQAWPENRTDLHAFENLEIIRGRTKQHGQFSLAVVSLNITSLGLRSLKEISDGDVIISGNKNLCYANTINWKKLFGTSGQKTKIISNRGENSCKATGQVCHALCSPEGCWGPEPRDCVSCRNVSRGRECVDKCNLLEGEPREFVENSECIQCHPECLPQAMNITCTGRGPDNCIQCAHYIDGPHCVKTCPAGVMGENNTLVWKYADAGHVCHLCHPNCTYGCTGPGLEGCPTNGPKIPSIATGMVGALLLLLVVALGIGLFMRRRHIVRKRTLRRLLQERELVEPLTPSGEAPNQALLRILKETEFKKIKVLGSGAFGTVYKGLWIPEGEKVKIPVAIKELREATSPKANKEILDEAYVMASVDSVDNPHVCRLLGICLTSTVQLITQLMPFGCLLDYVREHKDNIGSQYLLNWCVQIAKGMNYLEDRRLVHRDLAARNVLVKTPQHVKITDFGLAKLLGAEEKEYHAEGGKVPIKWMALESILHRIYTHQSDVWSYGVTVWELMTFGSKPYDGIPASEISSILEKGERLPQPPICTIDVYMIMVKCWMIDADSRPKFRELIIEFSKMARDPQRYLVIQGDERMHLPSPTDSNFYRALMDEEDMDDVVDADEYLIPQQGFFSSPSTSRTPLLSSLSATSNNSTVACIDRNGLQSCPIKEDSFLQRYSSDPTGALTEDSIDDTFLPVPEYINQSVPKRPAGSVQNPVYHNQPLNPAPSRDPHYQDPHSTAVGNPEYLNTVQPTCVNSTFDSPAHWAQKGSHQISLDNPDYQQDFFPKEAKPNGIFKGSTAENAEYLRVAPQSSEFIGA
Reported endpoint: GI50

Please list GI50 recorded for the molecule `CN1CCC[C@@H]1/C=C/C(=O)Nc1ccc2ncnc(Nc3ccc(OCc4ccccn4)c(Cl)c3)c2c1OCCO`
5 to 10 nM

Please list GI50 recorded for the molecule `CN1CCC[C@@H]1/C=C/C(=O)Nc1ccc2ncnc(Nc3ccc(OCc4ccccn4)c(Cl)c3)c2c1OCCCO`
10 to 100 nM

Please list GI50 recorded for the molecule `COCCN1CCC[C@@H]1/C=C/C(=O)Nc1ccc2ncnc(Nc3ccc(OCc4cccc(F)c4)c(Cl)c3)c2c1OC`
10 to 100 nM

Please list GI50 recorded for the molecule `COc1c(NC(=O)/C=C/[C@H]2CCCN2C)ccc2ncnc(Nc3ccc(OCc4ccccn4)c(Cl)c3)c12`
10 to 100 nM

Reference source for all entries: patent US20240246934A1
